Value source: patent US20250352675A1

Reported values of Organ-to-muscle ratio, spleen for individual entries
method: Ex vivo biodistribution, organ-to-muscle ratio
Format: in vivo, mice
particulars: 1 nmol/mouse, 24 hours after administration
Number only, no unit.

compound	measurementLabel	result
CC1(C)C(/C=C/C2=C(Oc3ccc(CCC(=O)NCCCCCCCC(=O)Nc4nnc(S(N)(=O)=O)s4)cc3)C(=C/C=C3/N(CCCCS(=O)(=O)O)c4ccc(S(=O)(=O)O)cc4C3(C)C)/CCC2)=[N+](CCCCS(=O)(=O)[O-])c2ccc(S(=O)(=O)O)cc21 [HF-1, reference compound]	Organ-to-muscle ratio, spleen	1.4
CC1(C)C(/C=C/C=C/C=C/C=C2/N(CCCCS(=O)(=O)O)c3ccc(S(=O)(=O)O)cc3C2(C)C)=[N+](CCCCS(=O)(=O)[O-])c2ccc(C(=O)NCCCCCCCC(=O)Nc3nnc(S(N)(=O)=O)s3)cc21 [Compound 2]	Organ-to-muscle ratio, spleen	1.0
CC1(C)C(/C=C/C=C/C=C/C=C2/N(CCCCS(=O)(=O)O)c3ccc(C(=O)NC[C@H](O)[C@@H](O)[C@H](O)[C@H](O)CO)cc3C2(C)C)=[N+](CCCCS(=O)(=O)[O-])c2ccc(C(=O)NCCCCCCCC(=O)Nc3nnc(S(N)(=O)=O)s3)cc21 [Compound 1]	Organ-to-muscle ratio, spleen	0.5

Proceed to the following item.
INPUT: May I ask what Organ-to-muscle ratio, spleen has been recorded for CC1(C)C(/C=C/C2=C(Oc3ccc(S(=O)(=O)O)cc3)C(=C/C=C3/N(CCCCS(=O)(=O)O)c4ccc(S(=O)(=O)O)cc4C3(C)C)/CCC2)=[N+](CCCCS(=O)(=O)[O-])c2ccc(C(=O)NCCCCCCCC(=O)Nc3nnc(S(N)(=O)=O)s3)cc21 [Compound 3] ?
OUTPUT: 1.0

----------
studyTarget: CA-IX (Homo sapiens)
method: Cellular binding assessment by flow cytometry on CA-IX expressing HT-29 cells
particulars: 1 hour 30 min on ice, read-out: CA-IX receptor affinity (KD, to HT-29 cells)
measurementLabel: Kd (nM)
Your answer is read as nM, so omit the unit and give the number.

Worked examples follow.
molecule	unitAbbrev	Kd
CC1(C)C(/C=C/C2=C(Oc3ccc(S(=O)(=O)O)cc3)C(=C/C=C3/N(CCCCS(=O)(=O)O)c4ccc(S(=O)(=O)O)cc4C3(C)C)/CCC2)=[N+](CCCCS(=O)(=O)[O-])c2ccc(C(=O)NCCCCCCCC(=O)Nc3nnc(S(N)(=O)=O)s3)cc21	nM	62
CC1(C)C(/C=C/C2=C(Oc3ccc(CCC(=O)NCCCCCCCC(=O)Nc4nnc(S(N)(=O)=O)s4)cc3)C(=C/C=C3/N(CCCCS(=O)(=O)O)c4ccc(S(=O)(=O)O)cc4C3(C)C)/CCC2)=[N+](CCCCS(=O)(=O)[O-])c2ccc(S(=O)(=O)O)cc21 [HF-1, reference compound]	nM	115
CC1(C)C(/C=C/C=C/C=C/C=C2/N(CCCCS(=O)(=O)O)c3ccc(C(=O)NC[C@H](O)[C@@H](O)[C@H](O)[C@H](O)CO)cc3C2(C)C)=[N+](CCCCS(=O)(=O)[O-])c2ccc(C(=O)NCCCCCCCC(=O)Nc3nnc(S(N)(=O)=O)s3)cc21	nM	68

Now consider a different molecule.
INPUT: Given the entry `CC1(C)C(/C=C/C=C/C=C/C=C2/N(CCCCS(=O)(=O)O)c3ccc(S(=O)(=O)O)cc3C2(C)C)=[N+](CCCCS(=O)(=O)[O-])c2ccc(C(=O)NCCCCCCCC(=O)Nc3nnc(S(N)(=O)=O)s3)cc21` , report its measured Kd.
OUTPUT: 54
